I'd appreciate it if you could supply Parent compound values for the items below.
Test system: Rattus norvegicus
Assay: Compound was evaluated for the lipid soluble radioactivity extracted from rat plasma at 24 hr after intravenous administration.
Type: functional
# unit: % | format: bare number

Problem: Hello, please tell me recorded Parent compound for this one: `CCCCCCCCCCCCCCCC(=O)OC(COC(=O)CCCCCCCCCCCCCCCCc1c(I)cc(I)c(N)c1I)COC(=O)CCCCCCCCCCCCCCCCc1c(I)cc(I)c(N)c1I`
Solution: 18

Problem: Consider the molecule CCC(Cc1c(I)cc(I)c(N)c1I)C(=O)OCC(COC(=O)C(CC)Cc1c(I)cc(I)c(N)c1I)OC(=O)C(CC)Cc1c(I)cc(I)c(N)c1I (stereo not drawn) and give its recorded Parent compound.
Solution: 75.1

Problem: State its Parent compound: CCCCCCCCCCCCCCCC(=O)OC(COC(=O)C(CC)Cc1c(I)cc(I)c(N)c1I)COC(=O)C(CC)Cc1c(I)cc(I)c(N)c1I (stereo not drawn)
Solution: 77.4

Problem: Tell me measured Parent compound for `Nc1c(I)cc(I)c(CCCCCCCCCCCCCCCCC(=O)OCC(COC(=O)CCCCCCCCCCCCCCCCc2c(I)cc(I)c(N)c2I)OC(=O)CCCCCCCCCCCCCCCCc2c(I)cc(I)c(N)c2I)c1I` please.
Solution: 20.2

Problem: Report Parent compound for `CCCCCCCCCCCCCCCC(=O)OC(COC(=O)CCCCCCCCCCCc1c(I)cc(I)c(N)c1I)COC(=O)CCCCCCCCCCCc1c(I)cc(I)c(N)c1I`
Solution: 25.3

Problem: Give the measured Parent compound for `CCCCCCCCCCCCCCCC(=O)OC(COC(=O)CCc1c(I)cc(I)c(N)c1I)COC(=O)CCc1c(I)cc(I)c(N)c1I`
Solution: 80

Problem: Give Parent compound for the following molecule: `CCCCCCCCCCCCCCCC(=O)OC(COC(=O)Cc1c(I)cc(I)c(N)c1I)COC(=O)Cc1c(I)cc(I)c(N)c1I`
Solution: 60.8

Problem: Return value of Parent compound for input `Nc1c(I)cc(I)c(CCC(=O)OCC(COC(=O)CCc2c(I)cc(I)c(N)c2I)OC(=O)CCc2c(I)cc(I)c(N)c2I)c1I` , no commentary.
Solution: 68.2

---

Test system: Rattus norvegicus
Experiment: Liver radioactivity after iv administration of compound (5 min) in rats
Assay type: functional, organism-based
For each entry below, report its Radioactivity value.
Lab note: write the figure by itself, no unit.

Problem: Name the recorded Radioactivity of the molecule listed here: `CCCCCCCCCCCCCCCC(=O)OC(COC(=O)Cc1c(I)cc(I)c(N)c1I)COC(=O)Cc1c(I)cc(I)c(N)c1I`
Solution: 38.8

Problem: Supply measured Radioactivity of `Nc1c(I)cc(I)c(CCC(=O)OCC(COC(=O)CCc2c(I)cc(I)c(N)c2I)OC(=O)CCc2c(I)cc(I)c(N)c2I)c1I` in your reply.
Solution: 60.5

Problem: Let me know recorded Radioactivity for `CCCCCCCCCCCCCCCC(=O)OC(COC(=O)CCCCCCCCCCCCCCCCc1c(I)cc(I)c(N)c1I)COC(=O)CCCCCCCCCCCCCCCCc1c(I)cc(I)c(N)c1I` , thanks.
Solution: 33.8

Problem: # return recorded Radioactivity for input `CCCCCCCCCCCCCCCC(=O)OC(COC(=O)CCCCCCCCCCCc1c(I)cc(I)c(N)c1I)COC(=O)CCCCCCCCCCCc1c(I)cc(I)c(N)c1I`
Solution: 43.4

Problem: Query Radioactivity for CCC(Cc1c(I)cc(I)c(N)c1I)C(=O)OCC(COC(=O)C(CC)Cc1c(I)cc(I)c(N)c1I)OC(=O)C(CC)Cc1c(I)cc(I)c(N)c1I (centres undefined)
Solution: 22.4

Problem: Return reported Radioactivity. Input molecule: CCCCCCCCCCCCCCCC(=O)OC(COC(=O)C(CC)Cc1c(I)cc(I)c(N)c1I)COC(=O)C(CC)Cc1c(I)cc(I)c(N)c1I (centres undefined)
Solution: 18.4

Problem: For the molecule `Nc1c(I)cc(I)c(CCCCCCCCCCCCCCCCC(=O)OCC(COC(=O)CCCCCCCCCCCCCCCCc2c(I)cc(I)c(N)c2I)OC(=O)CCCCCCCCCCCCCCCCc2c(I)cc(I)c(N)c2I)c1I` , give its measured Radioactivity value.
Solution: 54.4

Problem: Return the recorded Radioactivity value; entry: `CCCCCCCCCCCCCCCC(=O)OC(COC(=O)CCc1c(I)cc(I)c(N)c1I)COC(=O)CCc1c(I)cc(I)c(N)c1I`
Solution: 43.1

Problem: Query Radioactivity for `Nc1c(I)cc(I)c(CCCCCCCCCCCC(=O)OCC(COC(=O)CCCCCCCCCCCc2c(I)cc(I)c(N)c2I)OC(=O)CCCCCCCCCCCc2c(I)cc(I)c(N)c2I)c1I`
Solution: 53.8
